Kindly supply the reported Ratio IC50 values for the records listed here.
# Target of assay: P2Y purinoceptor 12 (Homo sapiens)
# Sequence (Q9H244 whole entry): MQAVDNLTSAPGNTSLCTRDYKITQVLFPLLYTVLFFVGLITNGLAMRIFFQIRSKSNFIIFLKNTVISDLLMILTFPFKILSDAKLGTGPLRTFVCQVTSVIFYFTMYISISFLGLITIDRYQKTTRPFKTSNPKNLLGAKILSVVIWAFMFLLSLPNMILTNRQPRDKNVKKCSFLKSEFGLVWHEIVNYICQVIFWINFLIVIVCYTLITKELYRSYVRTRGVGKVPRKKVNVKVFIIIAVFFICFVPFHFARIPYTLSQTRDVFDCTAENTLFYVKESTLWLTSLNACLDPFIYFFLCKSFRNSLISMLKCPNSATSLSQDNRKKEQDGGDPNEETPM
# Method notes: Ratio of compound IC50 to AZD-6140 IC50 for P2Y12 receptor in human platelet rich plasma assessed as inhibition of ADP-induced platelet aggregation by light transmission aggregometry
The answer should be a number; do not append a unit.

// lookup Ratio IC50 for `CCCCCOC(=O)N1CCN(C(=O)[C@H](CCC(=O)O)NC(=O)c2cc(N3CCC(CNCC)CC3)nc(-c3ccccc3)n2)CC1`
0.7

// lookup Ratio IC50 for `CCCCOC(=O)N1CCN(C(=O)[C@H](CCC(=O)O)NC(=O)c2cc(N3CCC(OC)CC3)nc(-c3ccccc3)n2)CC1`
2.7

// lookup Ratio IC50 for `CCCCCOC(=O)N1CCN(C(=O)[C@H](CCC(=O)O)NC(=O)c2cc(N3CCC(CC(=O)NC)CC3)nc(-c3ccccc3)n2)CC1`
1.2
